I'd be grateful if you could share measured IC50 for these entries.
Biological target: Recombinant human His-tagged Kat6a protein (amino acids 194-810) (Homo sapiens, UniProt Q92794)
Construct: Kat6a protein (amino acids 194-810); His
Sequence (Q92794 194-810): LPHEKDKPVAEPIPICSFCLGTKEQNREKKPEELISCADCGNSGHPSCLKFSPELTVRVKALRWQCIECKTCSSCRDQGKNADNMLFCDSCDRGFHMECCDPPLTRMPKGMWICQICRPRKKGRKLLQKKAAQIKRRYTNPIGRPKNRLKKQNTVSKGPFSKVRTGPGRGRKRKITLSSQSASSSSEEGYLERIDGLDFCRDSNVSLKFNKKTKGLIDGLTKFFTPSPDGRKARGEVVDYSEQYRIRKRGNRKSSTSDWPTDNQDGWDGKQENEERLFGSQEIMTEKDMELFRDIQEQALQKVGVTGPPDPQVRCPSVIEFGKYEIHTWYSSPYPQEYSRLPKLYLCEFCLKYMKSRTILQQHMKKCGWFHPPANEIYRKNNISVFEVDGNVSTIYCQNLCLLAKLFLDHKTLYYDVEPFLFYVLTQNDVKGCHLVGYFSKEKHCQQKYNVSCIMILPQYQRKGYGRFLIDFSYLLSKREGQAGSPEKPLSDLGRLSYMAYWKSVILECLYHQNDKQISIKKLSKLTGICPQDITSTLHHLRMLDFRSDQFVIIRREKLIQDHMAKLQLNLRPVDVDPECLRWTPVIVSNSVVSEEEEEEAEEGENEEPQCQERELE
Experiment: Kat6a activity assay (TR-FRET, acetylation of Histone-H4-derived peptide)
Details: 60 mins at 22° C., 220 nM H4 peptide, 600 nM Acetyl Coenzyme A, read-out: KAT6A - DPF/HAT domain IC50 [mol/l] (arithmetic mean)
Procedure: Kat6a inhibitory activities of the compounds described in the present invention were quantified using a Fluorescence Resonance Energy Transfer (TR-FRET) assay which measures acetylation of a synthetic, biotinylated Histone-H4-derived peptide by the enzyme. In this case 50 nl DMSO were used instead of compounds. […] IC50 values were determined by regression analysis based on a 4 parameter equation (minimum, maximum, ICM, Hill; Y=Max+(Min−Max)/(1+(X/ICso) Hill) using the Screener Software (Genedata).
Value and unit, in that order.

IC50 reading for CCOc1ccccc1S(=O)(=O)NC(=O)c1cc2c(F)cc(N3CCC3(C)C)cc2o1 [Example 219] : 1.85 µM

The measured IC50 associated with CC(C)N(C)c1cc(F)cc(F)c1S(=O)(=O)NC(=O)c1cc2c(F)cc(N3CC(F)C3)cc2o1 [Example 165] reads 0.318 µM

get_value(item= COc1ccc(-c2cn(C)nc2C)cc1S(=O)(=O)NC(=O)c1cc2c(F)cc(N3CCC3)cc2o1 [Example 195] , readout=IC50) returns 0.00507 µM

Lab note: measured IC50 of Cc1cccc(OC(C)C)c1S(=O)(=O)NC(=O)c1cc2c(F)cc(N3CCC3)cc2o1 [Example 86] was 0.0548 µM

// IC50 value for CC(C)c1cc(Br)ccc1S(=O)(=O)NC(=O)c1cc2c(F)cc(N3CCC3)cc2o1 [Example 38] : 0.0855 µM

Noted for CCOc1ccccc1S(=O)(=O)NC(=O)c1cc2ccc(N3CC(C)(F)C3)cc2o1 [Example 116] : its IC50 reads 2.29 µM

Reported IC50 ( CN(C)C(=O)c1ccccc1S(=O)(=O)NC(=O)c1cc2c(F)cc(N3CCC3)cc2o1 [Example 51] ) = 0.189 µM

Looking up O=C(NS(=O)(=O)c1cc(O)cc2ccccc12)c1cc2c(F)cc(N3CCC3)cc2o1 [Example 71] , I found its IC50 recorded as 0.0843 µM
